B1: library; a variant is named by its letters at N, in order (parent)
chain: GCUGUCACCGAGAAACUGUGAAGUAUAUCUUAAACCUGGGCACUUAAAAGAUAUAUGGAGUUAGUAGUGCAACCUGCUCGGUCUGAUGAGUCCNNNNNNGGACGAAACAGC

variants of: B1; experiment: normalized RNA/DNA level with ligand (relative to sTRSVctl = 100) (log10 (% of sTRSVctl)); HEK293T; ligand: cyclic di-GMP (c-di-GMP-II aptamer); ligand concentration (+) RNA-Seq: 1 mM; higher = less ribozyme self-cleavage, higher mRNA level; conditions: reporter: mCherry (pCS4076), ligand present: yes
Measurement Type: normalized RNA/DNA level with ligand (log10)
One number for each entry.

Solved entries (count: 2):
> print(dat)
                             residue.string  experimental.result
1  GCUGUCACCGAGAAACUGUGAAGUAUAUCUUAAACCUGGGCACUUAAAAGAUAUAUGGAGUUAGUAGUGCAACCUGCUCGGUCUGAUGAGUCCUGGGUGGGACGAAACAGC                 1.86
2  GCUGUCACCGAGAAACUGUGAAGUAUAUCUUAAACCUGGGCACUUAAAAGAUAUAUGGAGUUAGUAGUGCAACCUGCUCGGUCUGAUGAGUCCGCUGUUGGACGAAACAGC                 1.79

Okay, here is my list. What is normalized RNA/DNA level with ligand (log10) for each of these?
1. GCUGUCACCGAGAAACUGUGAAGUAUAUCUUAAACCUGGGCACUUAAAAGAUAUAUGGAGUUAGUAGUGCAACCUGCUCGGUCUGAUGAGUCCAGUGGCGGACGAAACAGC
2. GCUGUCACCGAGAAACUGUGAAGUAUAUCUUAAACCUGGGCACUUAAAAGAUAUAUGGAGUUAGUAGUGCAACCUGCUCGGUCUGAUGAGUCCUGCGAUGGACGAAACAGC
3. GCUGUCACCGAGAAACUGUGAAGUAUAUCUUAAACCUGGGCACUUAAAAGAUAUAUGGAGUUAGUAGUGCAACCUGCUCGGUCUGAUGAGUCCAUUGAUGGACGAAACAGC
4. GCUGUCACCGAGAAACUGUGAAGUAUAUCUUAAACCUGGGCACUUAAAAGAUAUAUGGAGUUAGUAGUGCAACCUGCUCGGUCUGAUGAGUCCAACAGAGGACGAAACAGC

OUT:
1. 1.79
2. 1.8
3. 1.79
4. 1.59

IN: Param item = GCUGUCACCGAGAAACUGUGAAGUAUAUCUUAAACCUGGGCACUUAAAAGAUAUAUGGAGUUAGUAGUGCAACCUGCUCGGUCUGAUGAGUCCCCCCCAGGACGAAACAGC ; retrieve measured normalized RNA/DNA level with ligand (log10).
OUT: 1.83
